// reported PBM binding z-score per item
Test system: RXRa DBDmut IVT, anti-RXR (DBD mutation: RXRa K156A/R161A, NR concentration 90 nM)
METHOD_SUMMARY: PBM binding z-score (relative to random genomic background probes); higher = stronger binding; sequences stand for … in GC…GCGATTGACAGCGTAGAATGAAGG

Some entries whose results are on file:
{"columns": ["SEQUENCE_DATA", "MEASUREMENT_TYPE", "RESULT"],
 "data": [
  ["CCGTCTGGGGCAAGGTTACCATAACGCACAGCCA", "PBM binding z-score", -0.58],
  ["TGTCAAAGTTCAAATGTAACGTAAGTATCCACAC", "PBM binding z-score", 4.69],
  ["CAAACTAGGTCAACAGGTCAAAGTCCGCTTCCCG", "PBM binding z-score", 2.45],
  ["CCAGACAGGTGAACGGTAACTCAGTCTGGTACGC", "PBM binding z-score", -0.0435],
  ["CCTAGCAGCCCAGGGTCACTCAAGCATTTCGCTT", "PBM binding z-score", 0.289],
  ["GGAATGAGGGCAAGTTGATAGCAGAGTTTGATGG", "PBM binding z-score", 2.79],
  ["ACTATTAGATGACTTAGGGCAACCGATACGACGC", "PBM binding z-score", 0.754],
  ["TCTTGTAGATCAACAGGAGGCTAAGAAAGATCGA", "PBM binding z-score", 0.0884],
  ["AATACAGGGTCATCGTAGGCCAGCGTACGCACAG", "PBM binding z-score", 2.94],
  ["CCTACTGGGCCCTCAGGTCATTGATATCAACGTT", "PBM binding z-score", -0.149]
]}

-- ask Bench note: what PBM binding z-score did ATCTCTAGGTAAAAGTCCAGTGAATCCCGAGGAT show?
-- reply -0.403

-- ask Entry to check: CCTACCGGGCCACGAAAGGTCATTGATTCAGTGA
-- reply 0.0824
